Study target: mGAT3 (Mus musculus (Mouse))
Sequence (P31649 whole entry): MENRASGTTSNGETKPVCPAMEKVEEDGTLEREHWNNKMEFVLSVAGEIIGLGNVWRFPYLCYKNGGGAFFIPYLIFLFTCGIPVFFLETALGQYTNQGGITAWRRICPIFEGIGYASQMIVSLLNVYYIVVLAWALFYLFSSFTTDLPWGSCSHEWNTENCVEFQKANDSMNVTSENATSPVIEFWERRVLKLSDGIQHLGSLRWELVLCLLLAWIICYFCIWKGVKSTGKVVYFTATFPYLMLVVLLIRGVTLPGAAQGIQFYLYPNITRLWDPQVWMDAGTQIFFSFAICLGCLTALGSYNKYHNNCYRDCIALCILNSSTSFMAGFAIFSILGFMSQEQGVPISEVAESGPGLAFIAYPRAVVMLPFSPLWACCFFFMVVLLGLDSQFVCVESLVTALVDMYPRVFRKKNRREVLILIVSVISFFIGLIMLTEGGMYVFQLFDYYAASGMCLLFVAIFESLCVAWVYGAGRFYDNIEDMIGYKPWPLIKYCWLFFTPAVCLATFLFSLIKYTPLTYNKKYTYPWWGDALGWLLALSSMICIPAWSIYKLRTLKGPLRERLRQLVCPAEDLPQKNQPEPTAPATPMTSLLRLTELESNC
Experiment description: [3H]GABA uptake inhibition, mGAT3 in HEK293 cells
Format: cell-based
Condition parameters: GABA reuptake
Readout name: pIC50 (+/−SEM) mGAT3

[
  {
    "Smiles data": "O[C@@H](CNCC1CCCCC1)[C@H](Cc1ccccc1)NC1c2ccccc2-c2ccccc21",
    "Endpoint result": 4.94
  },
  {
    "Smiles data": "CC(C)(C)c1ccc(CNC[C@H](O)[C@H](Cc2ccccc2)NC(=O)CC2c3ccccc3-c3ccccc32)cc1",
    "Endpoint result": 4.90
  },
  {
    "Smiles data": "O=C(CC1c2ccccc2-c2ccccc21)N[C@@H](Cc1ccccc1)[C@H](O)CNCC1CC1",
    "Endpoint result": 5.09
  },
  {
    "Smiles data": "CC(C)(C)CNC[C@@H](O)[C@H](Cc1ccccc1)NC(=O)CC1c2ccccc2-c2ccccc21",
    "Endpoint result": 4.52
  },
  {
    "Smiles data": "O=C(CC1c2ccccc2-c2ccccc21)N[C@@H](Cc1ccccc1)[C@@H](O)CNCc1ccccc1",
    "Endpoint result": 4.93
  }
]

----------
// values below are reported pIC50 (+/−SEM) mGAT1
Study target: mGAT1 (Mus musculus (Mouse), UniProt P31648)
Experiment description: [3H]GABA uptake inhibition, mGAT1 in HEK293 cells
Type: cell-based
Condition parameters: GABA reuptake

[
  {
    "Smiles data": "C[C@H](NC[C@@H](O)[C@H](Cc1ccccc1)NC(=O)CC1c2ccccc2-c2ccccc21)c1ccccc1",
    "Study target": "mGAT1 (Mus musculus (Mouse), UniProt P31648)",
    "pIC50 (+/−SEM) mGAT1": 4.73
  },
  {
    "Smiles data": "CC(C)(C)c1cccc(CNC[C@@H](O)[C@H](Cc2ccccc2)NC2c3ccccc3-c3ccccc32)c1",
    "Study target": "mGAT1 (Mus musculus (Mouse), UniProt P31648)",
    "pIC50 (+/−SEM) mGAT1": 4.83
  },
  {
    "Smiles data": "COc1cccc(CNC[C@H](O)[C@H](Cc2ccccc2)NC2c3ccccc3-c3ccccc32)c1",
    "Study target": "mGAT1 (Mus musculus (Mouse), UniProt P31648)",
    "pIC50 (+/−SEM) mGAT1": 5.15
  },
  {
    "Smiles data": "CC(C)(C)c1ccc(CNC[C@H](O)[C@H](Cc2ccccc2)NC(=O)CC2c3ccccc3-c3ccccc32)cc1",
    "Study target": "mGAT1 (Mus musculus (Mouse), UniProt P31648)",
    "pIC50 (+/−SEM) mGAT1": 4.90
  },
  {
    "Smiles data": "O[C@H](CNCC1CC1)[C@H](Cc1ccccc1)NC1c2ccccc2-c2ccccc21",
    "Study target": "mGAT1 (Mus musculus (Mouse), UniProt P31648)",
    "pIC50 (+/−SEM) mGAT1": 4.96
  },
  {
    "Smiles data": "O=C(CC1c2ccccc2-c2ccccc21)N[C@@H](Cc1ccccc1)[C@H](O)CNCC1CC1",
    "Study target": "mGAT1 (Mus musculus (Mouse), UniProt P31648)",
    "pIC50 (+/−SEM) mGAT1": 4.87
  },
  {
    "Smiles data": "COc1ccccc1CNC[C@H](O)[C@H](Cc1ccccc1)NC1c2ccccc2-c2ccccc21",
    "Study target": "mGAT1 (Mus musculus (Mouse), UniProt P31648)",
    "pIC50 (+/−SEM) mGAT1": 5.20
  }
]
